self-aminoacylation values, listed per item
# System: biotinyl-Phe-oxazolone
# assayProcedure: self-aminoacylation, catalytic enhancement (BFO) (fold over background); higher = more active; k-Seq, kA / k0A0; sequences stand for … in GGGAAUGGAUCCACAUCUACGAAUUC…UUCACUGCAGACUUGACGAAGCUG
This sample holds only a part of the variants without activity.
Could you respond with only the numeric value?

sequenceRecord: GUUCACCUAGGUCAUAGGGUG [Fam2.2 aminoacylation ribozyme variant]
quantityKind: self-aminoacylation
testValue: 2.11

**Q:** Item AAGUUUGCUAAUAGUUGCGAG [Fam3.1 aminoacylation ribozyme variant] has what recorded self-aminoacylation?
**A:** 2.61

**Q:** Give its self-aminoacylation value. Item: AUUACCUUCGUCAUCGAGUGA [Fam2.1 aminoacylation ribozyme variant]
**A:** 2.48

**Q:** Could you tell me which self-aminoacylation is on file for AAGUUUUCUAAUAGUCGCUAG [Fam3.1 aminoacylation ribozyme variant] ?
**A:** 2.43

**Q:** Report self-aminoacylation for CUACUUCAAAAAAUCGGUAUG [Fam1A.1 aminoacylation ribozyme variant] please.
**A:** 4.4

**Q:** Dear colleague, I am looking for the recorded self-aminoacylation of the following sequence: AAUGUUGCUAAUAGUCGCAAG [Fam3.1 aminoacylation ribozyme variant]
**A:** 2.37

**Q:** Item under review: AAGUUUGCUAAUGGUCGCAAU [Fam3.1 aminoacylation ribozyme variant] . Reported self-aminoacylation?
**A:** 3.15

**Q:** Which self-aminoacylation is reported for this sequence? AUUAUCCUCGUCAUCGAGUGA [Fam2.1 aminoacylation ribozyme variant]
**A:** 5.23

**Q:** Please look up its self-aminoacylation: AUUCACCUAGGUUAUCGUGUG [Fam2.2 aminoacylation ribozyme variant]
**A:** 2.6

**Q:** Query: self-aminoacylation; subject: AUUACCCUGGUCAUCAAGUGU [Fam2.1 aminoacylation ribozyme variant]
**A:** 2.34

**Q:** // returns reported self-aminoacylation for input AUUGACCUAGCUCAUCGGGUG [Fam2.2 aminoacylation ribozyme variant]
**A:** 11

**Q:** Name the recorded self-aminoacylation for AUACACCUAGGUCAUCGGCUG [Fam2.2 aminoacylation ribozyme variant] .
**A:** 4

**Q:** If you can, please state the reported self-aminoacylation value of AAGUUUGCUAAUAGUCCCAAG [Fam3.1 aminoacylation ribozyme variant] .
**A:** 5.64

**Q:** For the sequence shown here, CAACACUUCAAGAAAUCGGUC [Fam1B.1 aminoacylation ribozyme variant] , give the reported self-aminoacylation.
**A:** 7.2

**Q:** Item under review: CCAGACUUCAAUCAAUCGGUC [Fam1B.1 aminoacylation ribozyme variant] . Reported self-aminoacylation?
**A:** 34.2
